Value source: the nanobody polyreactivity screen of Harvey et al. (2022)

- experimental.details: yeast display, Sf9 membrane polyspecificity reagent, FACS + sequencing; frameworks hold sequencing errors
measured.attribute: polyreactivity (PSR sort gate)

Answered cases to consult:
>  <sequence>
QVQLVESGGGLVQAGGSLRLSCAASGRIFFVYAMGWYRQAPGKERELVASITGGGSTNYADSVKGRFTISRDNAKNTVYLQMNSLKPEDTAVYYCGADIHSTRVFPEYPSGYDYWGQGTQVTVSS

>  <polyreactivity (PSR sort gate)>
low polyreactivity

$$$$
>  <sequence>
QVQLVESGGGLVQAGGSLRLSCAASGSTFKRYAMGWYRQAPGKERELVAAITRGGGSTYYADSVKGRFTISRDNAKNTVYLQMNSLKPEDTAVYYCNKGYRDYFTAYLSRYYWGQGTQVTVSS

>  <polyreactivity (PSR sort gate)>
high polyreactivity

$$$$
>  <sequence>
QVQLVESGGGLVQAGGSLRLSCAASGFTFTSFAMGWYRQAPGKERELVAAISARGGRTNYADSVKGRFTISRDNAKNTVYLQKNSLKPEDTAVYYCAADGFRAAYLYDYWGQGTQVTVSS

>  <polyreactivity (PSR sort gate)>
high polyreactivity

$$$$
>  <sequence>
QVQLVESGGGLVQAGGSLRLSCAASGRIFPGNAMGWYRQSPGKERELVAGISFSGGRTYYADSVKGRFSISRDNAKNTVYLQMNSLKPEDTAVYYCATKYQQHWWRYDYWGQGTQVTVSS

>  <polyreactivity (PSR sort gate)>
low polyreactivity

$$$$
>  <sequence>
QVQLVESGGFLVQAGGSLRLSCDASGSILADTSLGWYRQAPGKERELVAAISRRGGRTYYADSVKGRFTISRDNAKNTVYLQMNSLKPEDTGGYYCAAVGSFHIGDYWGLGTQVTVSS

>  <polyreactivity (PSR sort gate)>
high polyreactivity

$$$$
>  <sequence>
QVQLVESGGGLVQAGGSLRLSCSASGTILYFYAMGWYRQAQGKERELVAAIDSGGSTDYADSVKGRFTISRYNAKNTVYLQMNSLKPEDTAVYYCAAYPWERYTWWYVYRGHVYWGQGTQVTVSS

>  <polyreactivity (PSR sort gate)>
low polyreactivity

$$$$
>  <sequence>
QVQLVESGGGLVQAGGSLRLSCAASGRIFRGYAMAWYRQAPGKERELVAAISGRGGRTNYADSVKGRFTISRDNAKNTVYLQMNSLKPEDTAVYYCATVPYTASRYEYWGQGTQVTVSS

>  <polyreactivity (PSR sort gate)>
high polyreactivity

$$$$
>  <sequence>
QVQLVDSGGGLVQAGGSLRLSCAASGSIFRPYARGWYRQAPWKERELVASIRWYDGSTYYADSVKGRFTSSRDNAMNTVYLQMNSLKPEDSAVYYCAADYYSQLAGIFDYWGQGTQVTVSS

>  <polyreactivity (PSR sort gate)>
low polyreactivity

$$$$
>  <sequence>
QVQLVESGGGLVQAGGSLRLSCAASGSTNVVNAMGRYRQPPGKERELVAAITYSGGSTYYADSVKGRFTISRDNAKNTVYLQQNSLKPEDTAVYYCNTTLRDSRQYVDRAPYTRYDYWGQGTQVTVSS

>  <polyreactivity (PSR sort gate)>
low polyreactivity

$$$$
>  <sequence>
QVQLVESGGGLVQAGGSLRLSCAASGITFYRYAMGWYRQAPGKERELVAAITSGGGRTYYADSVKGRFTISRDNAKNTVYLQMNSLKPEDTAVYYCNAADYTAYGQGEYWGQGTQVTVSS

>  <polyreactivity (PSR sort gate)>
high polyreactivity

$$$$

List polyreactivity (PSR sort gate) for every entry below, keeping the order given.
1. QVQLVESGGGLVQAGGSLRLSCAASGSTFFNNAMGWYRQAPGKERELVAAITGGGGRTYYADSVKGRFTISRDNAKNTVYLQMNSLKPEDTAVYYCAAVPRRSYGGYPYYYWGQGTQVTVSS
2. QVQLVESGGGLVQASGSLRLSCAASGFTFSQYDMGWNRQDHGKERELVAAISWNGGSTYYAESVKGRFTISRDNAKNTVYLQMNSLKPDDTAVYYCNRRWPFVRFYYWGQGTQVTVSS

Reply:
1. low polyreactivity
2. high polyreactivity

List polyreactivity (PSR sort gate) for every entry below, keeping the order given.
1. QVQLVESGGGLVQAGGSLRLSCAASGRTFTRYAMGWYRQAPGKERELVAAISRGGSTYYADSVKGRFTISRDNAKNTVYLQMNSPKPEDTAVYYCAARYGTYTAGNYWGQGTQVTVSS
2. QVQLVESGGGLVQAGGSLRLSCADSGYIFYPYTMGWYRQAPGKEMELDAAITWSGSTYYADSVKGRFTISRDNAKNTVYLQMNSLKPEDTAVYYCAADFDSYDSYTYLQYDYWGQGTQVTVSS
3. QLQLVESGGGLVQAGGSLRLSCAASGFTFRWYVMGWYRQAPCKQRELVASIRSGGSTYYADSVKGRFTISRDNAKNTVYLQMNSLKPEDTAVYYCAARFGRDRYYYWGQGTQVTVSS

Reply:
1: high polyreactivity; 2: low polyreactivity; 3: high polyreactivity

List polyreactivity (PSR sort gate) for every entry below, keeping the order given.
1. QVQLVETGGGIVQAGGSLRLSCAASGFTFFRNAMGWYRQAPGKERELVAAISGSGGSTYYADSVKGRFTISRDNAKNKVYLQMNSLKPEDTAVYYCNAQKQIREPGNERLNYWGQGTQVTVSS
2. QVQLVESGGGLVQAGGSLRLSCAASGFTFYDNAMGWYRQAPGKERELVAAISWSGGSTYADSVKGRFTISRDNAKNTVYVQMNSLKPEDTAVYYCNADAWLASGYRYDYWGQGTQVTVSS

Reply:
1. low polyreactivity
2. low polyreactivity

List polyreactivity (PSR sort gate) for every entry below, keeping the order given.
1. QVQLVESGGGLVQAGGSLRLICAASGFTFSYYAMGWYRQAPGKESELVAGITTGGGTNYADSVKGRFTISRDNAKNTVYLQMNCLKPEDTAVYYCNAVGSHWVSYSSPVRFDFWGQGTQVTVSS
2. QVQLVESGGGLVQAGGSLRLSCAASCVRNAMGWYRQAPGKERELVAAITSGGNTNYADSVKGRFTISRDNAKNTVYLQMNSLKPEDTAVYYCAKDLLYYTQQGTGVVDYDYWGQGTQVTVSS
3. QVQLVESGGGLVQAGGSLRLSCAASGLTFTPNAMGWYRQAPGKEREFVAAITWRGGRTYYADSVKGRFTISRDNAKNTVYLQMNSLKPEDTAVYYCAADSFKGYDYWGQGTQVTVSS
4. QVQLVESGGGLVQAGGSLRLICAASGFIFSSYAMVWYRQAPGKERDLVAAISQTVGGTYYADSVKGRFTISRDNAKNTVYLQMNSLKPEDTAVYYCAADVYTASDRYWHDYWGQGTQVTVSS

Reply:
["low polyreactivity", "low polyreactivity", "high polyreactivity", "low polyreactivity"]
